details: in chloroform, 338.15 K
reported-property: solubility (mole fraction)
When you answer, write just the number.

Query :: Query: solubility (mole fraction); subject: O=P1(O)OCC2(CO1)COP(=O)(O)OC2 (stereo unspecified)
Result :: 0.00222

====

details: in water, 345.06 K
reported-property: solubility (mole fraction)
When you answer, write just the number.

Query :: Query: solubility (mole fraction); subject: "O=C(O)CCP(=O)(O)c1ccccc1"
Result :: 0.0412

====

conditions: in cyclohexane, 332.85 K
reported-property: solubility (mole fraction)
When you answer, write just the number.

Query :: Query: solubility (mole fraction); subject: "COc1ccc(P(c2ccc(OC)cc2)c2ccc(OC)cc2)cc1"
Result :: 0.00596

Query :: Query: solubility (mole fraction); subject: "COc1ccc(P(=O)(c2ccc(OC)cc2)c2ccc(OC)cc2)cc1"
Result :: 0.00589

====

details: in 2-butanone, 323.15 K
reported-property: solubility (mole fraction)
When you answer, write just the number.

Query :: Query: solubility (mole fraction); subject: O=P1(Oc2ccccc2)OCC2(CO1)COP(=O)(Oc1ccccc1)OC2 (stereo unspecified)
Result :: 0.00809

====

settings: in water, 327.57 K
reported-property: solubility (mole fraction)
When you answer, write just the number.

Query :: Query: solubility (mole fraction); subject: "O=P(O)(CO)c1ccccc1"
Result :: 0.0424

====

For each of the molecules below, state its solubility (mole fraction).
conditions: in 2-ethoxyethanol, 333.15 K
When you answer, write just the number.

Query :: Query: solubility (mole fraction); subject: "O=P(O)(CO)c1ccccc1"
Result :: 0.102

Query :: Query: solubility (mole fraction); subject: "O=C(O)CCP(=O)(O)c1ccccc1"
Result :: 0.102

====

conditions: in water, 308.37 K
reported-property: solubility (mole fraction)
When you answer, write just the number.

Query :: Query: solubility (mole fraction); subject: O=P1(Oc2ccccc2)OCC2(CO1)COP(=O)(Oc1ccccc1)OC2 (stereo unspecified)
Result :: 0.0003

====

details: in ethanol, 317.75 K
reported-property: solubility (mole fraction)
When you answer, write just the number.

Query :: Query: solubility (mole fraction); subject: "COc1ccc(P(=O)(c2ccc(OC)cc2)c2ccc(OC)cc2)cc1"
Result :: 0.00128

====

conditions: in 1,4-dioxane, 298.45 K
reported-property: solubility (mole fraction)
When you answer, write just the number.

Query :: Query: solubility (mole fraction); subject: O=P1(Oc2ccccc2)OCC2(CO1)COP(=O)(Oc1ccccc1)OC2 (stereo unspecified)
Result :: 0.00152

====

conditions: in ethyl acetate, 338.26 K
reported-property: solubility (mole fraction)
When you answer, write just the number.

Query :: Query: solubility (mole fraction); subject: O=P1(Oc2ccccc2)OCC2(CO1)COP(=O)(Oc1ccccc1)OC2 (stereo unspecified)
Result :: 0.00539

====

settings: in benzene, 338.15 K
reported-property: solubility (mole fraction)
When you answer, write just the number.

Query :: Query: solubility (mole fraction); subject: O=P1(O)OCC2(CO1)COP(=O)(O)OC2 (stereo unspecified)
Result :: 0.00176

====

conditions: in water, 349.47 K
reported-property: solubility (mole fraction)
When you answer, write just the number.

Query :: Query: solubility (mole fraction); subject: "O=C(O)CCP(=O)(O)c1ccccc1"
Result :: 0.0568

====

conditions: in acetonitrile, 328.27 K
reported-property: solubility (mole fraction)
When you answer, write just the number.

Query :: Query: solubility (mole fraction); subject: O=P1(Oc2ccccc2)OCC2(CO1)COP(=O)(Oc1ccccc1)OC2 (stereo unspecified)
Result :: 0.00522

====

conditions: in cyclohexane, 328.16 K
reported-property: solubility (mole fraction)
When you answer, write just the number.

Query :: Query: solubility (mole fraction); subject: O=P1(O)OCC2(CO1)COP(=O)(O)OC2 (configuration not stated)
Result :: 0.00041

Query :: Query: solubility (mole fraction); subject: "O=C(O)CCP(=O)(O)c1ccccc1"
Result :: 0.00314

====

For each of the molecules below, state its solubility (mole fraction).
details: in acetone, 298.17 K
When you answer, write just the number.

Query :: Query: solubility (mole fraction); subject: "O=C(O)CCP(=O)(O)c1ccccc1"
Result :: 0.00093

Query :: Query: solubility (mole fraction); subject: "O=P(O)(CO)c1ccccc1"
Result :: 0.0017

====

conditions: in dichloromethane, 299.22 K
reported-property: solubility (mole fraction)
When you answer, write just the number.

Query :: Query: solubility (mole fraction); subject: O=P1(Oc2ccccc2)OCC2(CO1)COP(=O)(Oc1ccccc1)OC2 (stereo unspecified)
Result :: 0.00127

====

conditions: in dichloromethane, 301.13 K
reported-property: solubility (mole fraction)
When you answer, write just the number.

Query :: Query: solubility (mole fraction); subject: "O=P(O)(CO)c1ccccc1"
Result :: 0.00119

====

details: in water, 353.24 K
reported-property: solubility (mole fraction)
When you answer, write just the number.

Query :: Query: solubility (mole fraction); subject: O=P1(Oc2ccccc2)OCC2(CO1)COP(=O)(Oc1ccccc1)OC2 (stereo unspecified)
Result :: 0.00295

====

settings: in dichloromethane, 303.14 K
reported-property: solubility (mole fraction)
When you answer, write just the number.

Query :: Query: solubility (mole fraction); subject: "O=P(O)(CO)c1ccccc1"
Result :: 0.00143

====

For each of the molecules below, state its solubility (mole fraction).
details: in toluene, 328.17 K

Query :: Query: solubility (mole fraction); subject: "O=P(O)(CO)c1ccccc1"
Result :: 0.0029

Query :: Query: solubility (mole fraction); subject: "COc1ccc(P(=O)(c2ccc(OC)cc2)c2ccc(OC)cc2)cc1"
Result :: 0.00143

Query :: Query: solubility (mole fraction); subject: "COc1ccc(P(c2ccc(OC)cc2)c2ccc(OC)cc2)cc1"
Result :: 0.00123

====

details: in chloroform, 293.25 K
reported-property: solubility (mole fraction)
When you answer, write just the number.

Query :: Query: solubility (mole fraction); subject: O=P1(Oc2ccccc2)OCC2(CO1)COP(=O)(Oc1ccccc1)OC2 (stereo unspecified)
Result :: 0.00224

====

settings: in dichloromethane, 288.15 K
reported-property: solubility (mole fraction)

Query :: Query: solubility (mole fraction); subject: "O=C(O)CCP(=O)(O)c1ccccc1"
Result :: 0.00029

====

conditions: in diethyl ether, 295.37 K
reported-property: solubility (mole fraction)
When you answer, write just the number.

Query :: Query: solubility (mole fraction); subject: O=P1(Oc2ccccc2)OCC2(CO1)COP(=O)(Oc1ccccc1)OC2 (stereo unspecified)
Result :: 0.00204

====

For each of the molecules below, state its solubility (mole fraction).
details: in acetone, 303.18 K

Query :: Query: solubility (mole fraction); subject: "O=P(O)(CO)c1ccccc1"
Result :: 0.002

Query :: Query: solubility (mole fraction); subject: "O=C(O)CCP(=O)(O)c1ccccc1"
Result :: 0.00124

====

conditions: in cyclohexane, 298.17 K
reported-property: solubility (mole fraction)
When you answer, write just the number.

Query :: Query: solubility (mole fraction); subject: "O=C(O)CCP(=O)(O)c1ccccc1"
Result :: 0.00108

Query :: Query: solubility (mole fraction); subject: "O=P(O)(CO)c1ccccc1"
Result :: 0.0012

Query :: Query: solubility (mole fraction); subject: O=P1(O)OCC2(CO1)COP(=O)(O)OC2 (stereo not drawn)
Result :: 0.00019

====

conditions: in diethyl ether, 301.13 K
reported-property: solubility (mole fraction)

Query :: Query: solubility (mole fraction); subject: "O=P(O)(CO)c1ccccc1"
Result :: 0.00188

====

details: in pyridine, 313.35 K
reported-property: solubility (mole fraction)
When you answer, write just the number.

Query :: Query: solubility (mole fraction); subject: O=P1(Oc2ccccc2)OCC2(CO1)COP(=O)(Oc1ccccc1)OC2 (stereo unspecified)
Result :: 0.0114

====

For each of the compounds below, state its solubility (mole fraction).
conditions: in benzene, 333.15 K

Query :: Query: solubility (mole fraction); subject: "O=C(O)CCP(=O)(O)c1ccccc1"
Result :: 0.00156

Query :: Query: solubility (mole fraction); subject: "O=P(O)(CO)c1ccccc1"
Result :: 0.0037

====

For each of the compounds below, state its solubility (mole fraction).
details: in benzene, 303.18 K

Query :: Query: solubility (mole fraction); subject: "COc1ccc(P(c2ccc(OC)cc2)c2ccc(OC)cc2)cc1"
Result :: 0.00045

Query :: Query: solubility (mole fraction); subject: "COc1ccc(P(=O)(c2ccc(OC)cc2)c2ccc(OC)cc2)cc1"
Result :: 0.00048

Query :: Query: solubility (mole fraction); subject: "O=P(O)(CO)c1ccccc1"
Result :: 0.0013

Query :: Query: solubility (mole fraction); subject: "O=C(O)CCP(=O)(O)c1ccccc1"
Result :: 0.00099

====

For each of the molecules below, state its solubility (mole fraction).
settings: in benzene, 308.14 K
When you answer, write just the number.

Query :: Query: solubility (mole fraction); subject: "COc1ccc(P(c2ccc(OC)cc2)c2ccc(OC)cc2)cc1"
Result :: 0.00054

Query :: Query: solubility (mole fraction); subject: "COc1ccc(P(=O)(c2ccc(OC)cc2)c2ccc(OC)cc2)cc1"
Result :: 0.00061

Query :: Query: solubility (mole fraction); subject: "O=P(O)(CO)c1ccccc1"
Result :: 0.0016

Query :: Query: solubility (mole fraction); subject: "O=C(O)CCP(=O)(O)c1ccccc1"
Result :: 0.00107
